B1: library; a variant is named by its letters at N, in order (parent)
chain: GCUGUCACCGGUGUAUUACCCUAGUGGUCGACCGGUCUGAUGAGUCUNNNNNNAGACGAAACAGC

Variants of: B1
Test method notes: FACS-Seq fitted mean relative fluorescence mCherry/BFP with ligand (log10 relative fluorescence); ligand: hypoxanthine (xanthine aptamer); ligand concentration (+) FACS-Seq: 5 mM; higher = higher reporter protein expression
Condition context: HEK293T, ligand present: yes
Recorded metric: FACS-Seq fitted mean (log10)
Simply state the number, no unit and no words.

Previously resolved entries follow.
[
  {
    "Sequence change": "CGUGAA",
    "Value reported": 0.148
  },
  {
    "Sequence change": "AACGUG",
    "Value reported": 0.737
  },
  {
    "Sequence change": "AUUAUU",
    "Value reported": 0.668
  },
  {
    "Sequence change": "GGCAUG",
    "Value reported": 0.621
  },
  {
    "Sequence change": "UUUAUA",
    "Value reported": -0.329
  },
  {
    "Sequence change": "AUGUGG",
    "Value reported": -0.0634
  }
]

Now for another entry.
-- ask Please report the recorded FACS-Seq fitted mean (log10) for AUAUGG .
-- reply -0.111
